System: IGF1R;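 further: KINOMEscan kinase panel screen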
Details: concentration: 1 μM, replicates: in singlicate; n = 1
value.type: %Inh (%)

INSERT INTO results (compound, value_type, value) VALUES
  ('CN1CCN(Cc2cccc(-c3ccc4c(Nc5ccc(Oc6ccccc6)cc5)ccnc4c3)c2)CC1', '%Inh', 5),
  ('Cl.Cl.NCC(NC(=O)c1cc(-c2ccccc2)c(-c2ccnc3[nH]ccc23)s1)c1ccccc1 (centres unmarked)', '%Inh', 0),
  ('Clc1ccc(-c2nn3ncccc3c2-c2ccnc(Nc3ccc4c(c3)OCCO4)n2)cc1', '%Inh', 0),
  ('Cl.Cl.NCC(C(=O)Nc1cc(Br)c(-c2ccnc3[nH]ccc23)s1)c1ccccc1 (centres unmarked)', '%Inh', 16),
  ('Cc1cccc(Nc2nc(N[C@H]3CCNC3)ncc2C(N)=O)c1.Cl', '%Inh', 2),
  ('COc1cc(Nc2nccc(-c3c(-c4cccc(NC(=O)c5c(F)cccc5F)c4)nn4ccccc34)n2)cc(OC)c1OC', '%Inh', 32),
  ('c1ccc(Oc2ccc(Nc3ccnc4cc(-c5ccc(CNCCN6CCOCC6)o5)ccc34)cc2)nc1', '%Inh', 0),
  ('CN(c1ccc(NC(=O)Nc2cc(C(F)(F)F)ccc2F)cc1)c1ccnc(Nc2ccc(S(N)(=O)=O)cc2)n1', '%Inh', 0),
  ('COc1cccc(-c2ccc3c(NC(=O)C4CC4)n[nH]c3n2)c1', '%Inh', 17),
  ('COC(=O)Nc1nc2ccc(Oc3ccc(NC(=O)Nc4cc(C(F)(F)F)ccc4F)cc3)cc2n1C.Cl', '%Inh', 0),
  ('Nc1ncnc2c1nc(-c1ccccc1)n2-c1ccccc1', '%Inh', 12),
  ('CC(=O)Nc1nc2cnc(Nc3cc(NC(=O)c4cccc(C5(C#N)CC5)c4Cl)ccc3C)nc2s1', '%Inh', 0),
  ('c1ccc(-c2n[nH]cc2Nc2ccnc3ccccc23)nc1', '%Inh', 2),
  ('CSc1cccc2c(-c3ccncn3)c(-c3ccc(F)cc3)nn12', '%Inh', 19),
  ('COc1cccc(C(=O)Nc2cccc(Oc3ccc4nc(NC(=O)C5CC5)cn4n3)c2)c1', '%Inh', 0),
  ('NCCCC(NC(=O)c1cc(Br)c(-c2ccnc3[nH]ccc23)s1)c1ccccc1.O=C(O)C(F)(F)F.O=C(O)C(F)(F)F (centres unmarked)', '%Inh', 2),
  ('O=C(Nc1cccc(-c2nn3ccccc3c2-c2ccnc(Nc3cccc(C(F)(F)F)c3)n2)c1)c1c(F)cccc1F', '%Inh', 0);
